- Tested on: RAW264.7
- Assay Protocol: Antiinflammatory activity in mouse RAW264.7 cells assessed as inhibition of LPS-induced NO production preincubated with compound for 30 mins followed by LPS-stimulation and measured after 24 hrs by Griess assay
- Assay type: functional, cell-based
Below, each of the compounds is paired with its reported pIC50 value.
On this scale, pIC50 is minus log10 of a concentration expressed in M (mol/L).

C[C@]1(CO)CC[C@@H](O)[C@]2(C)C3=C(CC[C@@H]12)C(=O)OC3 ... 5.21
CC12CCCC34C5=C(CC(O[C@@H]3OC1)C24)C(=O)OC5 ... 4.66
C[C@]1(CO)CCC[C@]2(CO)C3=C(CC[C@@H]12)C(=O)OC3 ... 4.68
CC(=O)OC[C@@]1(C)CCC[C@]2(COC(C)=O)C3=C(C[C@@H](OC(=O)c4cccnc4)[C@@H]12)C(=O)OC3 ... 4.72
CC(=O)OC[C@]12CCCC(C)(C)[C@@H]1[C@H](OC(=O)c1ccccc1)CC1=C2COC1=O ... 5.17

// pIC50 lookup, key: C[C@@H]1C[C@H]2[C@@H]3CCC4=CC(=O)C=C[C@]4(C)[C@@]3(F)[C@@H](O)C[C@]2(C)[C@@]1(O)C(=O)CO 5.59
